# measurement_notes: NCI Yeast Anticancer Drug Screen. Data for the rad50 strain (AID 155);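 further: 0% = growth of vehicle-only cultures of the same strain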
# stated_conditions: S. cerevisiae rad50 strain growth inhibition; at 50.0 µM (retest, dose inferred, filed as 5.0); active compounds read high
# Experimental: Growth inhibition of yeast strains with defined genetic alterations is measured as a screen for potential anti-cancer activity. Selected strains with alterations in DNA damage repair or cell cycle control were exposed to compounds and growth inhibition was measured relative to vehicle treated controls. The strain used in this assay is rad50
Compounds without any hit were thinned out: in the full panel of roughly 79,000, 15% have a hit.
Readings of growth inhibition for the listed compounds
Just the number in %, nothing appended.

CC(=O)OCC1OC(n2c(O)c(N=NC(N)=S)c3ccc([N+](=O)[O-])cc32)C(OC(C)=O)C1OC(C)=O (stereo unspecified)
95

Task: If you can, please state the reported growth inhibition value of CCCCCCCCCCCC(=O)NC(CCC(=O)O)C(=O)O (stereo unspecified) .
Output: -2

Task: Item under review: COC(=O)c1nc(=S)[nH]c(C(=O)OC)c1C(=O)c1ccc([N+](=O)[O-])cc1 . Reported growth inhibition?
Output: 84

Task: Endpoint output: growth inhibition of CC1N(O)C(c2ccccc2)C(c2ccccc2)=[N+]1[O-] (stereo unspecified) . Value?
Output: 25

Task: Item CC(=O)NS(=O)(=O)c1ccc(N=Cc2cc(Cl)cc(Cl)c2O)cc1 has what recorded growth inhibition?
Output: 98

Task: Given the compound CN(C)CCOC(=O)C1(CCC2CCCCC2)CCCCC1 , what is its reported growth inhibition?
Output: 80

Task: I am curious: what growth inhibition value has been reported for O=C1c2ccccc2C(=O)c2c1cccc2[N+](=O)[O-] ?
Output: 90

Task: I have this compound here, O=[N+]([O-])c1ccc(/C=N/O)o1 , and I need its recorded growth inhibition.
Output: 98

Task: What measured growth inhibition goes with Cc1ccccc1NCc1ccccc1Cl ?
Output: 98

Task: Would you mind telling me what growth inhibition value was observed for O=C1CC(O)CC(=O)C1=C(O)CCCCCCCCCCc1ccccc1 (stereo unspecified) ?
Output: 41

Task: So what does the record say about growth inhibition for COc1ccc(C(O)/C(=N\NC(N)=S)c2nc3ccc([N+](=O)[O-])cc3[nH]c2=O)cc1OC (stereo unspecified) ?
Output: 97
